- methodSummary: growth suppression of yeast trafficking mutant, preliminary HTS, modulators of trafficking downstream of Golgi apparatus project, 1536-format plate, OD 615 nm (AID 637)
- testConditions: yeast transport mutant growth, absorbance 615 nm, 18 h; stronger effect = higher value
Exercise: state measured inhibition for each of the molecules provided.
Field: numeric (%). Do not append units.

Exercise: inhibition lookup needed for CC(=O)c1ccc(OCC(O)CN2CC(C)OC(C)C2)cc1 (configuration not stated) , thanks.
Key: 4.13

Exercise: Could you do the same for "O=C(NCc1cccnc1)c1ccc2c(c1)OCO2" , please?
Key: -9.18

Exercise: And what about the molecule "Cc1ccc(C(=O)CSc2nnc(-c3cccnc3)n2N)cc1" ?
Key: 0.97

Exercise: Repeat for the following molecule: CC(=O)c1cccc(NC(=O)N2CCCC2C(=O)NCc2ccc(C)cc2)c1 (configuration not stated)
Key: 8.33

Exercise: Try "CC1CCN(C(=O)C2CCN(S(=O)(=O)c3cnc[nH]3)CC2)CC1" next.
Key: 3.87

Exercise: Next record, please: "Cc1cc(OCC(=O)N2CCCC2)cc(C)c1Cl"
Key: -0.33

Exercise: Follow-up entry: CC(=O)C1=C(C)NC(SCSc2ccccc2)=C(C#N)C1c1cccnc1 (configuration not stated)
Key: -1.64

Exercise: Cool, now CC(C)C1N=C2c3ccccc3N=C(SCc3cc(=O)n4ccccc4n3)N2C1=O (configuration not stated)
Key: -3.67

Exercise: Also, "Cn1nnnc1SCC(=O)N1CCN(c2cccc(Cl)c2)CC1" please.
Key: -1.11

Exercise: Note, next up: "CCOC(=O)c1c(NC(=O)c2nn(CC)cc2Br)c(C#N)cn1-c1ccccc1"
Key: -6.17

Exercise: Moving on to COC(=O)c1ccc(NC(=O)C(C)N2C(=O)c3ccccc3C2=O)cc1 (configuration not stated)
Key: -3.65

Exercise: And "O=C(O)CCC(=O)c1c[nH]c2ccccc12" ?
Key: -4.76

Exercise: And what about the molecule "COc1ccc(N(C(=O)c2ccco2)S(=O)(=O)c2cc(OC)ccc2OC)cc1" ?
Key: 4.17

Exercise: Next entry: "Cc1cc(C)n(-c2ccc(C(=O)Nc3ccc4c(c3)OCCO4)cc2)n1"
Key: -2

Exercise: Same lookup for "CC(C)(C)C(=O)CCN1C(=O)C2(OCCO2)c2ccccc21" , please.
Key: -2.3

Exercise: Note, next up: CCOC(=O)N1CCC2(O)CCCCC2C1c1ccc(F)cc1 (configuration not stated)
Key: 30.8

Exercise: Here is the next molecule: "CCOCCCNC(=O)CS(=O)(=O)Cc1nc(-c2cccc(OC)c2)oc1C"
Key: 5.24

Exercise: Same again, this time with O=C1OCc2cc(NC(=O)C3CCCO3)ccc21 (configuration not stated)
Key: -1.83

Exercise: Ok, now Cc1ccc(S(=O)(=O)N2CCCC2C(=O)OCc2nc3ccccc3s2)cc1 (configuration not stated)
Key: -5.4

Exercise: Also "Nc1nc(C2C(=O)CCCC2=O)cs1" ?
Key: 4.1

Exercise: Lookup "COc1ccccc1-c1nnc2sc(-c3ccc(N(C)C)cc3)nn12"
Key: 1.09

Exercise: CC1Cc2ccccc2N1S(=O)(=O)c1cccc(C(=O)OCC(=O)NC2CCS(=O)(=O)C2)c1 (configuration not stated) ?
Key: -3.61

Exercise: Entry to check: CCOC(=O)C1=C(O)C(=O)N(c2ccc(S(N)(=O)=O)cc2)C1c1ccccc1 (configuration not stated)
Key: -6.23

Exercise: Would you kindly repeat that for "C=CCn1c(CC#N)nnc1N1CCOCC1" ?
Key: -2.22

Exercise: Another: CC(C)(C)C1CCc2[nH]nc(C(=O)O)c2C1 (configuration not stated)
Key: 1.11

Exercise: And CCOC(=O)C1CCCN(c2c(N3CCN(c4ccccn4)CC3)c(=O)c2=O)C1 (configuration not stated) ?
Key: -2.46

Exercise: // repeat for "S=c1[nH]nc(Cc2ccccc2)n1-c1ccccc1" and report
Key: -6.33

Exercise: And then CC1=C(C(=O)NCc2ccco2)C2(CCC(C)CC2)OC1=O (configuration not stated) , what is it?
Key: -5.74

Exercise: Next molecule up: "CCc1nnc(NC(=O)c2cc3c(s2)CCCCC3)s1"
Key: -3.44

Exercise: Also "O=C(O)CCNc1nc(-c2ccccc2)nc2ccccc12" , if possible.
Key: -1.11

Exercise: Also, "CCc1ccccc1-n1c(SCC(=O)N2CCCC2)nnc1-c1ccccn1" please.
Key: -6.03

Exercise: Similarly, "Fc1cccc2sc(N3CCOCC3)nc12" ?
Key: 5.17

Exercise: What would you report for "Cc1cc(NC(=O)CSc2ccc3nnc(-c4cccc(F)c4)n3n2)no1" ?
Key: -4.17

Exercise: Next up: "CCNC(=O)c1ccc(NS(=O)(=O)c2ccccc2)cc1"
Key: 4.1

Exercise: Try the molecule "CCCc1nnc(SCC(=O)N2CCOCC2)n1Cc1ccco1"
Key: -6.39

Exercise: And what about the molecule "Cc1ccc(CCNC(=O)Cn2cccc2)cc1" ?
Key: 0.67

Exercise: Can you handle Cc1ccc(NC2c3ncccc3C(=O)N2C2CCCCC2)cc1C (configuration not stated) next?
Key: 11.5

Exercise: Let us now turn to "COc1cccc(Oc2ccc(N)cn2)c1"
Key: -4.43

Exercise: Moving on to "Cc1ccc2nc(NCCCN3CCOCC3)c(C=NCCCN3CCOCC3)c(=O)n2c1"
Key: -12

Exercise: Now consider CCOC(=O)C1=C(CN2CCOCC2)NC(=O)NC1c1cc(C)ccc1C (configuration not stated) and answer again.
Key: 4.33

Exercise: Same read-out for "CCCCP(=O)(CCCC)c1ccccc1C(=O)O" ?
Key: -2.46

Exercise: Cool, now O=C(c1ccc(Cl)cc1)N(Cc1cccs1)C1CCS(=O)(=O)C1 (configuration not stated)
Key: 7.7

Exercise: Consider next the molecule "CCOC(=O)c1sc(C)c2c(=O)n(CC)nnc12" in the same way.
Key: -9.52

Exercise: Request: O=S(NCc1ccco1)C12CC3CC(CC(C3)C1)C2 (configuration not stated)
Key: -5.4

Exercise: Could you do the same for "COC(=O)c1ccc(NC(=O)CN2CCN(c3ccc(Cl)cc3)CC2)cc1" , please?
Key: 12.9

Exercise: Now consider "COc1cc(NC(=O)Cc2nn(C)c(=O)c3ccccc23)cc(OC)c1" and answer again.
Key: -2.9

Exercise: Note, next up: "O=C(CN1C(=O)CSC1=O)Nc1ccc(N2CCOCC2)cc1"
Key: 16.4

====

- methodSummary: reversal of MRP1-mediated doxorubicin resistance, pilot screen, H69AR cells, doxorubicin co-treatment (AID 601)
- testConditions: H69AR cells + 2 uM doxorubicin, CellTiter-Glo, 72 h; measured here: viability with 2 uM doxorubicin; at 10 µM; stronger effect = lower value
quantity: viability

Exercise: // lookup viability for "COC(=O)c1cccc(NC(=O)Cc2coc3cc(OC)ccc23)c1"
Key: 78.6%

Exercise: Would you mind doing "COc1cccc(CNC(=O)CCn2c(=O)oc3ccccc32)c1" as well?
Key: 89.4%

Exercise: Entry to check: "CCCCCCNC(=O)Cc1c(O)c2ccccc2[nH]c1=O"
Key: 80.2%

Exercise: Query COC(=O)c1ccc(-c2ccc(CNCC(O)c3ccccc3)o2)cc1 (stereo unspecified) next
Key: 92.2%

Exercise: Same question, "COc1ccc2cnn(-c3ccccc3)c(=O)c2c1OC" this time
Key: 84.6%

Exercise: Next molecule: "Cc1cc(NC(=O)c2ccccc2Oc2ccccc2)no1"
Key: 93.5%

Exercise: Same again, this time with CCOc1ccc2[nH]c(=O)c(CN(Cc3nnnn3CCc3ccccc3)CC3CCCO3)cc2c1 (stereo unspecified)
Key: 57.5%

Exercise: And the next one, COc1ccccc1C(=O)N1CCNC(=O)C1CC(=O)Nc1ccc(Cl)cc1 (stereo unspecified) ?
Key: 98.3%

Exercise: What do we get for O=c1c(F)cn(C2CCCO2)c(=O)n1Cc1c(F)cccc1Cl (stereo unspecified) ?
Key: 93.2%

Exercise: Could you do the same for "O=C(COc1ccccc1F)NC1CC1" , please?
Key: 95%

Exercise: Now give it for CN(c1ccccc1)C(c1ccc(F)cc1)c1nnnn1CC1CCCO1 (stereo unspecified) too.
Key: 87.6%

====

- methodSummary: growth inhibitors of H69AR lung tumor, primary screen, human, duplicate replicates (AID 580);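 also: 100% = mean luminescence of untreated wells and 0% = no signal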
- testConditions: H69AR lung tumor cells viability, ATP luminescence, 72 h; at 10 µM; stronger effect = lower value
Peptide text beside a SMILES is read from it. * marks the point of attachment. Boc = CC(C)(C)OC(=O)*
quantity: viability (%)
Your answer should be a plain number; it is taken to be in %.

Exercise: Any idea what its viability is? The compound is "O=c1cc(CN2CCN(c3ccc(F)cc3)CC2)nc2sccn12"
Key: 87.2

Exercise: And the next one, COc1ccc(S(=O)(=O)NCC(c2cccnc2)N2CCN(c3ccc(F)cc3)CC2)cc1C (stereo unspecified) ?
Key: 87.4

Exercise: Next: "O=C(CSc1nc2ncccc2[nH]1)Nc1ccc2c(c1)OCCO2"
Key: 82

Exercise: Now consider CC(C)CC(NC(=O)OC(C)(C)C)C(=O)NC(C(=O)NC(C)C(N)=O)C(C)C (stereo not drawn) (Boc-Leu-Val-Ala-NH2; configuration not given here) and answer again.
Key: 112

Exercise: Now the compound "Cc1ccccc1NC(=O)C1CCN(c2cnccn2)CC1"
Key: 101

Exercise: Here is the next compound: "O=S(=O)(NCCSc1ccccc1)c1cccs1"
Key: 86.4

Exercise: How about this compound: "Cc1oc(C(=O)O)cc1CSCc1cc(C(=O)O)c(C)o1"
Key: 103

Exercise: Item: "COCCOC(=O)c1c(C)nc(SCC(=O)Nc2ccc(OC)cc2)c(C#N)c1-c1ccco1"
Key: 91

Exercise: Okay, and "COCCn1c(CN2CCN(c3cccc(Cl)c3)CC2)nc2c1c(=O)n(C)c(=O)n2C" ?
Key: 72.9

Exercise: Consider next the compound "Cc1c(C(=O)OC(C)C)[nH]c2c1C(=O)CCC2" in the same way.
Key: 106

Exercise: Do the same for "COc1ccc(C(N)=O)cc1N" please
Key: 94.6

Values from PubChem BioAssay
